The reported numbers originate from PubChem BioAssay (Tox21).

MEASUREMENT NOTES: qHTS RealTime-Glo MT Cell Viability Assay in HepG2 cells - 0 hour (AID 1224889); also: nearly all actives have a fitted effect of over 50% in size
ASSAY CONDITIONS: RealTime-Glo luminescence; series mostly up to 76.8 µM
Results filed as inconclusive are left out. Activity calls are given as the source filed them. Calls follow the shape of the dose curve; as a rule, active = well fitted cell-killing curve with a large enough effect in the repeat runs; inconclusive = weak or mixed curves, or effect the other way; inactive = flat fitted curve, though single readings scatter.
Outcome codes: active, inactive

[
  {
    "COMPOUND": "CCCCN(CCCC)CCCOC(=O)c1ccc(N)cc1",
    "LABEL": "inactive"
  },
  {
    "COMPOUND": "Nc1nccs1",
    "LABEL": "inactive"
  },
  {
    "COMPOUND": "CCCCC(=O)O[C@]1(C(=O)CO)[C@@H](C)C[C@H]2[C@@H]3CCC4=CC(=O)C=C[C@]4(C)[C@@]3(F)[C@@H](O)C[C@@]21C",
    "LABEL": "active"
  },
  {
    "COMPOUND": "O=C(c1ccc(O)cc1)c1ccc(Cl)cc1",
    "LABEL": "inactive"
  },
  {
    "COMPOUND": "CO[C@@]12[C@H](COC(N)=O)C3=C(C(=O)C(C)=C(N)C3=O)N1C[C@@H]1N[C@@H]12",
    "LABEL": "inactive"
  },
  {
    "COMPOUND": "CCCCCCCCCCCC(=O)[O][Sn]([CH2]CCC)([CH2]CCC)[O]C(=O)CCCCCCCCCCC",
    "LABEL": "inactive"
  },
  {
    "COMPOUND": "CCCCC1C(=O)N(c2ccccc2)N(c2ccc(O)cc2)C1=O (stereo not given)",
    "LABEL": "inactive"
  },
  {
    "COMPOUND": "CCCOc1ccc(S(=O)(=O)N2CCN(CC)CC2)cc1-c1nc2c(CC)n(Cc3ccccn3)nc2c(=O)[nH]1",
    "LABEL": "inactive"
  },
  {
    "COMPOUND": "CN(C(=O)C(Cl)Cl)c1ccc(OC(=O)c2ccco2)cc1",
    "LABEL": "inactive"
  },
  {
    "COMPOUND": "CCCCN(CCCC)C(=S)SSC(=S)N(CCCC)CCCC",
    "LABEL": "inactive"
  }
]

###

MEASUREMENT NOTES: qHTS RealTime-Glo MT Cell Viability Assay in HepG2 cells - 8 hour (AID 1224873); also: nearly all actives have a fitted effect of over 55% in size
ASSAY CONDITIONS: RealTime-Glo luminescence; series mostly up to 76.8 µM
Results filed as inconclusive are left out. The source made the active and inactive calls. Calls come from the whole dose curve; as a rule, active = well fitted cell-killing curve with a large enough effect in the repeat runs; inconclusive = weak or mixed curves; inactive = flat fitted curve, though single readings scatter.
MEASUREMENT LABEL: outcome

[
  {
    "MOLECULE": "CC(C)(CCl)c1ccccc1",
    "TEST VALUE": "inactive"
  },
  {
    "MOLECULE": "COc1cc2c(N3CCN(C(=O)Nc4ccc(OC(C)C)cc4)CC3)ncnc2cc1OCCCN1CCCCC1",
    "TEST VALUE": "inactive"
  },
  {
    "MOLECULE": "COC(=O)Nc1nc2ccc(C(=O)c3cccs3)cc2[nH]1",
    "TEST VALUE": "inactive"
  },
  {
    "MOLECULE": "c1cc[c]([Bi]([c]2ccccc2)[c]2ccccc2)cc1",
    "TEST VALUE": "inactive"
  },
  {
    "MOLECULE": "CCOC(=O)CC(=O)C(=O)OCC",
    "TEST VALUE": "inactive"
  },
  {
    "MOLECULE": "CN1C(=O)CC(C)(c2ccccc2)C1=O (configuration not stated)",
    "TEST VALUE": "inactive"
  },
  {
    "MOLECULE": "CC(=O)CC(c1ccc([N+](=O)[O-])cc1)c1c(O)c2ccccc2oc1=O (configuration not stated)",
    "TEST VALUE": "inactive"
  },
  {
    "MOLECULE": "CCCCCCCCCCCC[N+](C)(C)CCCS(=O)(=O)[O-]",
    "TEST VALUE": "inactive"
  },
  {
    "MOLECULE": "C[C@]12CCC(=O)C=C1C=C[C@@H]1[C@@H]2CC[C@@]2(C)[C@H]1CC[C@@]21CCC(=O)O1",
    "TEST VALUE": "inactive"
  },
  {
    "MOLECULE": "C[N+]1(C)CCC(=C(c2ccccc2)c2ccccc2)CC1",
    "TEST VALUE": "inactive"
  },
  {
    "MOLECULE": "CC(C)C(=O)O",
    "TEST VALUE": "inactive"
  },
  {
    "MOLECULE": "O=S1OCCO1",
    "TEST VALUE": "inactive"
  }
]
